# measured.on: P. falciparum apicoplast DNA polymerase (Pf-apPOL) (Plasmodium falciparum, UniProt Q8ILY1)
# Sequence (Q8ILY1 entry or part of it): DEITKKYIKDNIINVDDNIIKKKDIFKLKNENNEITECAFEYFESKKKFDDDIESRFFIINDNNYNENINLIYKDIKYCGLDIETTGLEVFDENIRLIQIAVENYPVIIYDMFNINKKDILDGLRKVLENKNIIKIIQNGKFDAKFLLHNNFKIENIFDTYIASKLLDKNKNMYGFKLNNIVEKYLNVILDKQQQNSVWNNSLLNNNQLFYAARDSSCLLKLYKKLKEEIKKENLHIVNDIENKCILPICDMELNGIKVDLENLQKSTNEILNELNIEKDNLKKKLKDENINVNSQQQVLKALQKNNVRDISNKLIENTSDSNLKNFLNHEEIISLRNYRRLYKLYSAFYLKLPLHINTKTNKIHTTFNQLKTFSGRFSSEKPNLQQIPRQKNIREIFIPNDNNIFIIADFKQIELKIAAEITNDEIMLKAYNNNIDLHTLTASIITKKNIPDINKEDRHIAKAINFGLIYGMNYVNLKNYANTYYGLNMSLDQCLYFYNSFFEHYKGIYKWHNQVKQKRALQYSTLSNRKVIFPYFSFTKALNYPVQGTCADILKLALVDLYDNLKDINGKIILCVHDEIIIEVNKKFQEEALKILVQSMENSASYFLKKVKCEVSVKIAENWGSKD
# test.method.notes: Fluorescence-based high-throughput DNA polymerase assay (molecular beacon), primary screen and dose-response;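 as to % inhibition ApPOL 90': test concentration in µM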
# Assay type: biochemical
# conditions.used: DRC-2, 90', concentration 10
property.name: % inhibition ApPOL 90' (%)
Your answer should be a plain number; it is taken to be in %.

Asked: Quickly give me recorded % inhibition ApPOL 90' for O=[N+]([O-])c1cc2c(cc1CN1CCN(c3cccc(Cl)c3)CC1)OCO2
Given back: 11

Asked: Supply recorded % inhibition ApPOL 90' for Cc1nn(CC(=O)NCCSCc2ccco2)c(C)c1Br here.
Given back: 12

Asked: Indicate the recorded % inhibition ApPOL 90' value for this compound: O=c1cc(-c2ccccc2)oc2c(O)c(O)ccc12
Given back: 16

Asked: Look up and state reported % inhibition ApPOL 90' for O=C(Nc1nnc(-c2ccno2)o1)c1ccc2ncsc2c1
Given back: 29

Asked: Find the measured % inhibition ApPOL 90' of O=C(O)C(=O)Nc1nc(-c2ccc3c(c2)OCCO3)cs1 and report it.
Given back: 23

Asked: For the compound CN1CC(=Cc2ccco2)C(=O)C(=Cc2ccco2)C1 , give its measured % inhibition ApPOL 90' value.
Given back: 32

Asked: Check the records and state % inhibition ApPOL 90' for COc1ccc(C(=O)Nc2cccc(-c3nc4ncccc4o3)c2)cc1[N+](=O)[O-]
Given back: 15

Asked: Recall and state the measured % inhibition ApPOL 90' for CS(=O)(=O)c1cccc(C(=O)Nc2nnc(-c3ccno3)o2)c1 .
Given back: 8

----------
# measured.on: P. falciparum apicoplast DNA polymerase (Pf-apPOL) (Plasmodium falciparum, UniProt Q8ILY1)
# test.method.notes: Fluorescence-based high-throughput DNA polymerase assay (molecular beacon), primary screen and dose-response
# Format: biochemical
# conditions.used: DRC-1; 10'; concentration 10
Exercise: state measured % inhibition Apo pol 10' for each of the compounds provided.
Field: numeric (%). Do not append units.

Asked: Please give measured % inhibition Apo pol 10' of the following entry: CO/N=C(\C(=O)N[C@@H]1C(=O)N2C(C(=O)[O-])=C(CSc3nc(=O)c([O-])nn3C)CSC12)c1csc(N)n1.[Na+].[Na+] (some centres unmarked) [Molecule 83]
Given back: 38.6298

Asked: Look up % inhibition Apo pol 10' of OC(C#Cc1ccccc1)c1ccco1 (centres unmarked) [Molecule 95, OC(c1ccco1)C#Cc1ccccc1] and report it.
Given back: 77.3144

Asked: In one line, give reported % inhibition Apo pol 10' of the entry CSCCC(C)(O)CNC(=O)C1CC1 (centres unmarked) [KU0200150] .
Given back: 19.1529

Asked: Quote % inhibition Apo pol 10' reported for CS(=O)(=O)c1cccc(C(=O)Nc2nnc(-c3ccno3)o2)c1 [KU0171319] please.
Given back: 36.7259

Asked: Provide only the value of recorded % inhibition Apo pol 10' for Cc1ccccc1C(=O)N1CCc2c(nc3cc(-c4ccccc4)[nH]n3c2=O)C1 [Molecule 41]
Given back: 45.445

Asked: Name the recorded % inhibition Apo pol 10' of the item O=C1N=C(Nc2cccc(Cl)c2Cl)S/C1=C\c1ccco1 [Molecule 3, O=C1N=C(S/C/1=C\c1ccco1)Nc1cccc(c1Cl)Cl] in your answer.
Given back: 71.7156

Asked: Recall and state the measured % inhibition Apo pol 10' for O=C(NNC(=O)c1ccc(Cl)cc1)C(=O)NNC(=O)c1ccc(Cl)cc1 [Molecule 25] .
Given back: 53.2072

Asked: Determine from records and report % inhibition Apo pol 10' for O=C(Nc1ccc2c(c1)Cc1cc(NC(=O)c3ccco3)ccc1-2)c1ccco1 [KU0038977]
Given back: 28.4085

----------
# measured.on: P. falciparum apicoplast DNA polymerase (Pf-apPOL) (Plasmodium falciparum)
# test.method.notes: Fluorescence-based high-throughput DNA polymerase assay (molecular beacon), primary screen and dose-response
# Format: biochemical
# conditions.used: conc. 2.5; 5'; DRC-2
Assign % inhibition Apo pol 5' to each entry below.
The reply should contain only the number, in %.

Asked: Provide % inhibition Apo pol 5' value for the following compound: O=C(Nc1cccc(Cl)c1)Nc1nnc(-c2ccncc2)s1 [KU0022348]
Given back: 16

Asked: Supply recorded % inhibition Apo pol 5' for COc1ccc(NC(=O)Cn2ccc3c(=O)[nH]ccc32)cc1 [Molecule 13, COc1ccc(cc1)NC(=O)Cn1ccc2c1cc[nH]c2=O] here.
Given back: 7

Asked: Write down % inhibition Apo pol 5' measured for item CC(=O)Nc1cc(C(=O)NC(C)C)c2ccc(C)nc2c1 [KU0206312]
Given back: 8

Asked: Give recorded % inhibition Apo pol 5'. O=C(O)c1cccc(N2N=C(C(F)(F)F)/C(=C/c3ccc(-c4ccccc4[N+](=O)[O-])o3)C2=O)c1 [Molecule 100]
Given back: 20

Asked: Retrieve % inhibition Apo pol 5' measured for CCCCCCCCCCCC1SCC(C(=O)O)N1C(C)=O (centres unmarked) [Molecule 72] and print it.
Given back: 13

----------
For each record, write down the corresponding % inhibition apPOL 180'.
# measured.on: P. falciparum apicoplast DNA polymerase (Pf-apPOL) (Plasmodium falciparum)
# test.method.notes: Fluorescence-based high-throughput DNA polymerase assay (molecular beacon), primary screen and dose-response
# Assay type: biochemical
# conditions.used: DRC-2; concentration 20; 180'
Answer in %, number only, no unit symbol.

Asked: Output reported % inhibition apPOL 180' of the compound CCOc1ccc2cc(C3=NN(C(=O)CCC(=O)O)C(c4ccc(C)cc4)C3)c(=O)[nH]c2c1 (centres unmarked) [KU0056200] on P. falciparum apicoplast DNA polymerase (Pf-apPOL) (Plasmodium falciparum).
Given back: 39

Asked: Determine reported % inhibition apPOL 180' for Cc1cc(C)nc(Nc2nc(CC(=O)Nc3nc(-c4ccco4)cs3)cs2)n1 [Molecule 92] ; test system: P. falciparum apicoplast DNA polymerase (Pf-apPOL) (Plasmodium falciparum).
Given back: 57

Asked: Print P. falciparum apicoplast DNA polymerase (Pf-apPOL) (Plasmodium falciparum) % inhibition apPOL 180' for CCCN1COc2ccc3c(=O)c(-c4ccccc4)coc3c2C1 [KU0199556] .
Given back: 22

Asked: Report value: % inhibition apPOL 180', system: P. falciparum apicoplast DNA polymerase (Pf-apPOL) (Plasmodium falciparum), compound: O=C(Cc1cccs1)N1CCN(c2nc(CN3CCOCC3)cs2)CC1 [Molecule 35]
Given back: 56

Asked: State the measured % inhibition apPOL 180' (P. falciparum apicoplast DNA polymerase (Pf-apPOL) (Plasmodium falciparum)) of COc1ccc(C=C2Oc3c(ccc4c3CN(Cc3ccco3)CO4)C2=O)c(OC)c1 [KU0199404]
Given back: 31

----------
# measured.on: UniProtKB Q8ILY1
# test.method.notes: Fluorescence-based high-throughput DNA polymerase assay (molecular beacon), primary screen and dose-response
# Type: biochemical
# conditions.used: DRC-2; 180'; concentration 10
Entries get a class label from measured % inhibition apPOL 180'. See ranges: bin 1 = under 10%, bin 2 = from 10% up to 20%, bin 3 = 20% and over

Asked: Hey, which category is Cc1ccc2c(C(=O)NCCc3cccnc3)cc(NC(=O)C(C)C)cc2n1 [KU0206096] in, do you know?
Given back: bin 2

Asked: # bin label for COc1ccc(C)cc1NC(=O)Cn1ccc2c(=O)[nH]ccc21 [Molecule 15, COc1ccc(cc1NC(=O)Cn1ccc2c1cc[nH]c2=O)C]
Given back: bin 3

Asked: # bin label for Oc1cccc2ccc(/C=C/c3ccc4c(c3)OCO4)nc12 [KU0025984]
Given back: bin 3

Asked: Place this molecule in its band: CCCCCCCCCCCC1SCC(C(=O)O)N1C(C)=O (stereo not drawn) [Molecule 72]
Given back: bin 2

Asked: Please let me know in which category the item COc1ccc(-c2n[nH]cc2Oc2ccc(Cl)cc2)c(O)c1 [KU0029837] belongs.
Given back: bin 3

Asked: Kindly state the category for this molecule: O=C(CSc1nc2ccccc2s1)Nc1ncc([N+](=O)[O-])s1 [KU0019667]
Given back: bin 1

Asked: Note: place this molecule into its band. Item: COCCN(CCOC)Cc1c(O)ccc2c1OC(=Cc1cc(Br)ccc1OC)C2=O [KU0198471]
Given back: bin 3

Asked: Which class is correct for the following molecule? O=c1cc(CN2CCCCC2)c2cc3c(cc2o1)OCO3 [Molecule 56, O=c1cc(CN2CCCCC2)c2c(o1)cc1c(c2)OCO1]
Given back: bin 3

Asked: Pick a category. Item: Cc1cc(C)c(O)c(/N=C/c2cc([N+](=O)[O-])cc(Br)c2O)c1 [KU0046272]
Given back: bin 1

Asked: Determine which band this molecule sits in: CC(=O)c1cc2c(N)c(/C(N)=N/C#N)sc2nc1C [KU0015866]
Given back: bin 1

Asked: GET /class?item= O=C(c1c[nH]c2ncccc12)N1CCCC1 [Molecule 63, O=C(c1c[nH]c2c1cccn2)N1CCCC1]
Given back: bin 3

Asked: Determine which band this molecule sits in: O=C(NCC1CCN(C2CCCC2)CC1)C(=O)NC1CCCC1 [KU0199596]
Given back: bin 1

Asked: Please classify: Cc1ccc(CCNC(=O)c2cnn3c(O)c(Cc4ccccc4F)c(C)nc23)cc1 [KU0097142]
Given back: bin 2

Asked: Category of O=C1C(=Cc2ccncc2)Oc2c1ccc1c2CN(Cc2ccc3c(c2)OCO3)CO1 [KU0199357] , please.
Given back: bin 2

Asked: Please let me know in which category the item Nc1cc(Oc2ccc(O)c(N)c2)ccc1O [KU0034728] belongs.
Given back: bin 3

Asked: Which band does O=C1CCCC2=C1C(c1ccccn1)C1=C(CCCC1=O)O2 [KU0194228] fall in?
Given back: bin 3

Asked: State the band of O=C(O)C(=O)Nc1nc(-c2ccc3c(c2)OCCO3)cs1 [Molecule 82, OC(=O)C(=O)Nc1scc(n1)c1ccc2c(c1)OCCO2]
Given back: bin 2
